# test.target: soluble human BLyS (human, UniProt Q9Y275 134-285)
# assay.procedure: cell-based or functional assay
Reported IC50 hBLyS stimulated, mouse splenic B-cell proliferation is given for each of the following binders.
value.type: IC50 hBLyS stimulated, mouse splenic B-cell proliferation (ng/mL)

>>> quantitative_result("5B7 IgG expressed in HEK293 cells (antibody, V domains shown, also called 5B7 (293); 5B7-HEK293) VH: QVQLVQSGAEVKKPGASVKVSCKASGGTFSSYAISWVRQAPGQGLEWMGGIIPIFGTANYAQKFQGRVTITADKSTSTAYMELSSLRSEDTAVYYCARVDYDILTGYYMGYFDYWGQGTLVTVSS VL: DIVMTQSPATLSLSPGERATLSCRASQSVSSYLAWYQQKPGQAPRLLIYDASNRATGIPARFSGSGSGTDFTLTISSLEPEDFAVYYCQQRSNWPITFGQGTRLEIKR")
4
>>> quantitative_result("belimumab (antibody, V domains shown) VH: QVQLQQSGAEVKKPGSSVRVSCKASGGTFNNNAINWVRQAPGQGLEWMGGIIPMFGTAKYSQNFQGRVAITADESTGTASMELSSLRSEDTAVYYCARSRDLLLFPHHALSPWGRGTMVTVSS VL: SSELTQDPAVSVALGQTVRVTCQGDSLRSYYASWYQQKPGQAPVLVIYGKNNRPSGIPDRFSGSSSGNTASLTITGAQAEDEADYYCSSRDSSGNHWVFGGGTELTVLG")
18
>>> quantitative_result("tabalumab (antibody, V domains shown) VH: QVQLQQWGAGLLKPSETLSLTCAVYGGSFSGYYWSWIRQPPGKGLEWIGEINHSGSTNYNPSLKSRVTISVDTSKNQFSLKLSSVTAADTAVYYCARGYYDILTGYYYYFDYWGQGTLVTVSS VL: EIVLTQSPATLSLSPGERATLSCRASQSVSRYLAWYQQKPGQAPRLLIYDASNRATGIPARFSGSGSGTDSTLTISSLEPEDFAVYYCQQRSNWPRTFGQGTKVEIKR")
4

Data provenance: patent US20170101466A1
